- tested-target: STAT4 (Homo sapiens, UniProt Q14765)
- Sequence (Q14765 whole entry, species assumed): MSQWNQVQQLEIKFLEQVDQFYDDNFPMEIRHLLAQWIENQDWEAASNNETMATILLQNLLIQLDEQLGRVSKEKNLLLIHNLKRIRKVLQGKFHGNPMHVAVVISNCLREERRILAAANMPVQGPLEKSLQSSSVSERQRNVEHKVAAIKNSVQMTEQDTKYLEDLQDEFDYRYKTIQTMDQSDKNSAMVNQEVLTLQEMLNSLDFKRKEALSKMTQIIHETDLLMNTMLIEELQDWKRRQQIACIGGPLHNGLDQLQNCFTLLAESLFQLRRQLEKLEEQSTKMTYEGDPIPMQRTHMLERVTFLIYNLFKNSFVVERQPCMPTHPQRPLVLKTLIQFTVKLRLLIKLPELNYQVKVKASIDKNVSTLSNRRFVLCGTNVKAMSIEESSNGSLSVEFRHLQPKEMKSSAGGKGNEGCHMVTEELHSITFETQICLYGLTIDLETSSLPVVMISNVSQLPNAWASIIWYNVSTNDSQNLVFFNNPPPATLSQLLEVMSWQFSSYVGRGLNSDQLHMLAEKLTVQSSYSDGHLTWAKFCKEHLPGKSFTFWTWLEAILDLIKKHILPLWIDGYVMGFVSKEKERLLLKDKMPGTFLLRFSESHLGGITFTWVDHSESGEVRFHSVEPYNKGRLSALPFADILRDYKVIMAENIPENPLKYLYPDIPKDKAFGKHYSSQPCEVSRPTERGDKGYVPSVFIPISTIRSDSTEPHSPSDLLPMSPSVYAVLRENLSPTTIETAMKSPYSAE
- assay-explanation: Competitive fluorescence polarization (FP) assay, STAT4
- Type: binding
- condition-context: no reducing agent, 3 hr; read-out: IC50 STAT4 (FP assay), no reducing agent
experimental-endpoint: pIC50
On this scale, pIC50 is minus log10 of a concentration expressed in M (mol/L).

**Q:** Give a short answer stating reported pIC50 for Cc1nc(/N=N/c2ccc(S(=O)(=O)O)cc2S(=O)(=O)O)c(COP(=O)(O)O)c(C=O)c1O .
**A:** 5.59

* * *

- tested-target: STAT4 (Homo sapiens, UniProt Q14765)
- assay-explanation: Competitive fluorescence polarization (FP) assay, STAT4
- Type: binding
- condition-context: no reducing agent, 1 h; read-out: IC50 STAT4 (FP assay)
Kindly supply the reported IC50 values for the records listed here.
Answer with a number only, understood to be in nM.

**Q:** Give a short answer stating reported IC50 for Cc1nc(/N=N/c2cc(S(=O)(=O)O)ccc2S(=O)(=O)O)c(COP(=O)(O)O)c(C=O)c1O [iso‐PPADS] .
**A:** 1900

**Q:** Give a short answer stating reported IC50 for Cc1nc(/N=N/c2ccc(S(=O)(=O)O)cc2S(=O)(=O)O)c(COP(=O)(O)O)c(C=O)c1O [PPADS] .
**A:** 2200
